Values were extracted from the supplement of paper PMC10065799.

Kindly state phosphorylation enrichment for each of the entries shown.
# Test system: c-Src
# protocol details: phosphorylation enrichment, bacterial display (enrichment ratio); higher = better substrate or ligand; peptides without Tyr show the background
API note: the answer field is a bare number with no unit suffix.

Input: Recorded phosphorylation enrichment for GNHISYYQSDG [CACNA1C_Y1757_V1755I] , please?
Output: 0.496

Input: Also need DCAAIYGNEPE [AKR1A1_Y50] , thanks.
Output: 1.42

Input: Also need RIFDYYSARKA [STOX1_Y858] , thanks.
Output: 1.1

Input: Also need TVSTRYTQPQP [SARG_Y259] , thanks.
Output: 0.364

Input: Also need LPKEQYLFTKE [AFG3L2_Y614_YF] , thanks.
Output: 0.406

Input: Also need QKDTFYGLRSL [IGSF10_Y126] , thanks.
Output: 0.807

Input: Also need EEVGIYRMSGV [BCR_Y1089_V1091M] , thanks.
Output: 6.23

Input: Also need NPQKSCFIRLY [WAS_Y83_Y83C] , thanks.
Output: 0.403

Input: Also need SFCFRYRCAPR [SUMF1_Y344_A348P_YF] , thanks.
Output: 0.701

Input: Also need KPPPTYESEEE [BRD4_Y599] , thanks.
Output: 0.767

Input: Also need RLPSGYGLAYR [DLK1_Y262] , thanks.
Output: 0.39

Input: Also need PSAELYSYALP [PDGFRB_Y716_N718Y] , thanks.
Output: 5.38

Input: Also need GRSTFYWPSPR [GAGE12J_Y10_R13S_YF] , thanks.
Output: 0.551

Input: Also need MARDISRASFF [ALK_Y1278_Y1278S_YF] , thanks.
Output: 0.396

Input: Also need KGEDFYSVTCH [FHL1_Y149_C150S] , thanks.
Output: 3.96

Input: Also need RLLVVYPWTKR [HBB_Y36_Q40K] , thanks.
Output: 0.583

Input: Also need GGDAVYTNGTI [RFX2_Y82_A86T] , thanks.
Output: 1.32

Input: Also need PPKFFDTRKLL [CYBB_Y41_Y41D] , thanks.
Output: 0.614

Input: Also need GGQSVYHVNLH [HINT1_Y109_H112N] , thanks.
Output: 1.03

Input: Also need EKSREYDRLFE [PIK3R1_Y463_YF] , thanks.
Output: 0.5

Input: Also need RLLVVYRWTQR [HBB_Y36_P37R] , thanks.
Output: 0.402

Input: Also need ERFSYYGMKAV [SLC15A2_Y61] , thanks.
Output: 1.4

Input: Also need MSPPGYKLVTG [GJA1_Y286] , thanks.
Output: 0.429

Input: Also need DSIRDYEDGTE [CLNS1A_Y214_M218T] , thanks.
Output: 1.1

Input: Also need AGLEDYDRLRP [RAC3_Y64_Q61L] , thanks.
Output: 0.485

Input: Also need WSISFYPQVIM [CTNS_Y143] , thanks.
Output: 0.35

Input: Also need FSLIHYAGIVD [MYH7_Y582] , thanks.
Output: 0.343

Input: Also need NDTAGYFIIGG [SEL1L3_Y399] , thanks.
Output: 0.584

Input: Also need VTQEQYELYCE [CBL_Y368] , thanks.
Output: 0.892

Input: Also need KDPPDYKYQPR [SOX9_Y172_H169P] , thanks.
Output: 0.538

Input: Also need ERTIEYLEEVA [HADHA_Y239] , thanks.
Output: 0.521

Input: Also need FHLLPYTIRAM [PARS2_Y93_V95I_YF] , thanks.
Output: 1.02

Input: Also need MEIHAYHKLLE [LMNA_Y376_R377H] , thanks.
Output: 0.441

Input: Also need DFLEKYFKFGC [NNMT_Y24_S29C_YF] , thanks.
Output: 0.549

Input: Also need EALDFCGEVRT [PTEN_Y155_Y155C] , thanks.
Output: 0.545

Input: Also need WFQTKYEELQI [KRT6B_Y360_YF] , thanks.
Output: 0.398

Input: Also need TRSFDYTEGGD [FGF7_Y58_M59T_YF] , thanks.
Output: 0.431

Input: Also need EIIPFYGMSSF [FNDC3B_Y175_T179S_YF] , thanks.
Output: 0.822

Input: Also need QCTSAHPLQPE [NANS_Y188_Y188H] , thanks.
Output: 0.461

Input: Also need RFLERYIYNRQ [HLA-DPB1_Y57_E62Q] , thanks.
Output: 0.768

Input: Also need VSYGEYRYRSV [CFTR_Y515_D513G] , thanks.
Output: 3.22

Input: Also need KLIETCFSKNF [PLP1_Y50_Y50C_YF] , thanks.
Output: 0.476

Input: Also need ENAGFYFQVSA , thanks.
Output: 0.347

Input: Also need IHFPPYTDWNQ [ALDH3B2_Y365_YF] , thanks.
Output: 0.52

Input: Also need AEFGLYGAMVW [VSX2_Y222_R227W_YF] , thanks.
Output: 2.69

Input: Also need TMKSHYMELYD [BBS2_Y644_R643H] , thanks.
Output: 1.2

Input: Also need QSSALYEDHFL [ASS1_Y83_R86H_YF] , thanks.
Output: 2.12

Input: Also need SLMNQYVNKKF [RAB7A_Y28] , thanks.
Output: 0.342

Input: Also need TVQVAYFTVMM [SPATA17_Y83_M86V_YF] , thanks.
Output: 0.666

Input: Also need MANYMYKAGPS [MAML2_Y515] , thanks.
Output: 0.556

Input: Also need VFLGAYDHFLP [SLC22A5_Y486_R488H_YF] , thanks.
Output: 3.29

Input: Also need LARDMYDKEYY [MET_Y1230] , thanks.
Output: 0.673

Input: Also need VSSPKYGGDDE [TMCC2_Y473_S475G] , thanks.
Output: 0.424

Input: Also need WAAQRYGRELR [BAD_Y110] , thanks.
Output: 0.487

Input: Also need IEELTYIIKQD [STX5_Y137] , thanks.
Output: 0.554

Input: Also need RKPDIYERLAS [MCM4_Y459] , thanks.
Output: 2.04

Input: Also need RWGQKHMTAVV [CYBA_Y72_Y72H] , thanks.
Output: 0.496

Input: Also need GAAMLYFPSVS [GPR143_Y177_YF] , thanks.
Output: 0.56

* * *

# tested target: c-Src SH2;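 note: peptide library displayed on the E. coli surface as eCPX fusions, selected cells deep-sequenced, score is each peptide's frequency after selection divided by its frequency in the input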
# protocol details: SH2 binding enrichment of the phosphorylated peptide, bacterial display (enrichment ratio); higher = better substrate or ligand; peptides without Tyr show the background
Criterion: SH2 binding enrichment meeting or surpassing 0.7. Met: Fulfilled. Not met: Not fulfilled.

Input: Quick check: does EDDIIYTQDFM [STK11_Y362_T367M] have SH2 binding enrichment greater than or equal to 0.7?
Output: Not fulfilled

Input: Also need TESNNYIFKTL [FAM83B_Y637_YF] , thanks.
Output: Not fulfilled

Input: Also need LPKDLYLISQM [LARP4_Y141_S137P] , thanks.
Output: Not fulfilled

Input: Also need RQSTLYSFFPT [MSH6_Y8_K13T] , thanks.
Output: Fulfilled

Input: Also need LLQAEYWHDPI [PPT1_Y185_V181L] , thanks.
Output: Fulfilled

Input: Also need EAIAKYDLKAT [GRB2_Y7_F9L] , thanks.
Output: Not fulfilled

Input: Also need FEDALYTVLHR [UNC13D_Y61_YF] , thanks.
Output: Not fulfilled

Input: Also need WIPIQYPIISE [NOG_Y222] , thanks.
Output: Fulfilled

Input: Also need LKDEDYLKDIV [HAUS3_Y582] , thanks.
Output: Not fulfilled

Input: Also need ERTIEYLEEVA [HADHA_Y239] , thanks.
Output: Not fulfilled

Input: Also need KQFWRYFAGNL [SLC25A4_Y112] , thanks.
Output: Fulfilled

Input: Also need FCRHNYGAVES [HLA-DRB1_Y112_V114A_YF] , thanks.
Output: Fulfilled

Input: Also need EEQKKNFNAMK [SCN5A_Y1494_Y1494N_YF] , thanks.
Output: Not fulfilled

Input: Also need KQELVYPNKKL [OPTN_Y356_T357P] , thanks.
Output: Not fulfilled

Input: Also need FADIAYIFRHG [PAH_Y166_N167I_YF] , thanks.
Output: Not fulfilled

Input: Also need GIMEEYQLPYY [BMPR1A_Y453_V450M] , thanks.
Output: Fulfilled

Input: Also need AEFGLYGAMVW [VSX2_Y222_R227W_YF] , thanks.
Output: Not fulfilled

Input: Also need SCRSKYVGLWG [KCNQ1_Y184_G179S] , thanks.
Output: Fulfilled

Input: Also need SYSGEYGSGGG [ZG16_Y30_G32S] , thanks.
Output: Not fulfilled

Input: Also need MGSYNYLGFAW [SPTLC2_Y178_R183W] , thanks.
Output: Not fulfilled

Input: Also need AIIEEYLHLND [EIF4G1_Y1253] , thanks.
Output: Not fulfilled

Input: Also need QRIHNYFEHRF [HCN4_Y554_D553N_YF] , thanks.
Output: Fulfilled

Input: Also need KLQQWYREHRS [GPI_Y17] , thanks.
Output: Fulfilled

Input: Also need DYYDLYGGKKF [PTPN11_Y66_E69K] , thanks.
Output: Not fulfilled

Input: Also need QPSALYEDRFL [ASS1_Y83_S79P_YF] , thanks.
Output: Not fulfilled

Input: Also need CSKRFYQLTKL [AR_Y858_R855K] , thanks.
Output: Fulfilled
